- target system: p70S6K (Homo sapiens, UniProt P23443, T412E)
- Construct: purchased Upstate Chemicon 14-486
- Sequence (P23443 1-421 T412E limits assumed): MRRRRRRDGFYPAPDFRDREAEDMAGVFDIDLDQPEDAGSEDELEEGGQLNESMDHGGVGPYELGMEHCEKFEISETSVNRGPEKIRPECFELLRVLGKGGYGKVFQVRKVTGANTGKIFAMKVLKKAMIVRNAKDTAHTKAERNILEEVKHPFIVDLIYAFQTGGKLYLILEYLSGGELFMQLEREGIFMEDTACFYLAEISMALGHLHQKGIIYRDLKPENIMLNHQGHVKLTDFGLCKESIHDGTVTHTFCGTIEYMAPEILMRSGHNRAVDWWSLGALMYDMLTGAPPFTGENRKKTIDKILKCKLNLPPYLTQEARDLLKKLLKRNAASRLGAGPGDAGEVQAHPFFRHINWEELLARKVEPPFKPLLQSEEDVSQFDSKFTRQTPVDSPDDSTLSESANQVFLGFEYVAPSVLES
- experiment description: p70S6K inhibition assay (IMAP)
- Format: biochemical
- particulars: IMAP FP; human enzyme; Ki=IC50/(1+([ATP Challenge]/EC50 ATP)); read-out: p70S6K Ki, Avg
Items are presented alongside their recorded Ki.
measured endpoint: Ki

> print(dat)
                                chem.smiles  measured.endpoint   result
1  Cc1ccc(CN2CCC[C@@H](Nc3ccc4[nH]ncc4c3)C2)cc1NS(=O)(=O)N(C)C                 Ki  5.44 µM
2  Cc1ccc(CN2CCC[C@H](Nc3ccc4[nH]ncc4c3)C2)cc1NS(=O)(=O)N(C)C                 Ki  9.87 µM

----------
- Test system: human neutrophils
- experiment description: Human neutrophil chemotaxis (fMLP-induced)
- Format: cell-based
- particulars: 1 h, read-out: Chemotaxis Avg IC50
pIC50: −log10 of the molar value.
measured endpoint: pIC50

> print(dat)
                                chem.smiles  measured.endpoint  quantitative.readout
1  Cc1cncc2cccc(S(=O)(=O)N3CCCNC[C@@H]3C)c12              pIC50                  5.36

----------
- target system: ROCK1 (Homo sapiens, UniProt Q13464)
- Construct: purchased Upstate/Chemicon 14-601
- Sequence (Q13464 17-535 limits assumed): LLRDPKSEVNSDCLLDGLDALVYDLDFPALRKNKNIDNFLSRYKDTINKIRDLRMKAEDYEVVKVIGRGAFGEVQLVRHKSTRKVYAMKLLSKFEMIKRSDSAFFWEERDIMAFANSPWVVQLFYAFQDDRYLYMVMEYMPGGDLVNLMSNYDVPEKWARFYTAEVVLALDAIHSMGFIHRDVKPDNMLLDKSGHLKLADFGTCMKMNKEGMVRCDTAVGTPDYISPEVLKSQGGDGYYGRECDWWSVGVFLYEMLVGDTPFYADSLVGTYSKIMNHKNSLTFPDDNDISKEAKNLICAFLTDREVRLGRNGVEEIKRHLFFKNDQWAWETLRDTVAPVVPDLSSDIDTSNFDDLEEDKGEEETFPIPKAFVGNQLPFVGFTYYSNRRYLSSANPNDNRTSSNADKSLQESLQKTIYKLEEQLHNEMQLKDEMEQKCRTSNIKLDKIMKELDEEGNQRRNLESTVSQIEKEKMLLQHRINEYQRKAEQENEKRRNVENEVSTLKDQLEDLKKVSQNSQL
- experiment description: Rho kinase inhibition assay (IMAP), ROCK1
- Type: biochemical
- particulars: read-out: ROCK1 Ki; average Ki (Example 1)
pKi: −log10 of the molar value.
measured endpoint: pKi

> print(dat)
                                   compound  quantitative.readout
1  Cc1ccc(CN2CCC[C@@H](Nc3ccc4[nH]ncc4c3)C2)cc1NS(=O)(=O)N(C)C [Compound 1.262]                  7.26
2  Cc1ccc(CN2CCC[C@H](Nc3ccc4[nH]ncc4c3)C2)cc1NS(=O)(=O)N(C)C [Compound 1.237]                  6.54

----------
- target system: IRAK1 (Homo sapiens)
- Construct: purchased Upstate, Millipore Bioscience Division (KinaseProfiler service)
- Sequence (P51617 whole entry): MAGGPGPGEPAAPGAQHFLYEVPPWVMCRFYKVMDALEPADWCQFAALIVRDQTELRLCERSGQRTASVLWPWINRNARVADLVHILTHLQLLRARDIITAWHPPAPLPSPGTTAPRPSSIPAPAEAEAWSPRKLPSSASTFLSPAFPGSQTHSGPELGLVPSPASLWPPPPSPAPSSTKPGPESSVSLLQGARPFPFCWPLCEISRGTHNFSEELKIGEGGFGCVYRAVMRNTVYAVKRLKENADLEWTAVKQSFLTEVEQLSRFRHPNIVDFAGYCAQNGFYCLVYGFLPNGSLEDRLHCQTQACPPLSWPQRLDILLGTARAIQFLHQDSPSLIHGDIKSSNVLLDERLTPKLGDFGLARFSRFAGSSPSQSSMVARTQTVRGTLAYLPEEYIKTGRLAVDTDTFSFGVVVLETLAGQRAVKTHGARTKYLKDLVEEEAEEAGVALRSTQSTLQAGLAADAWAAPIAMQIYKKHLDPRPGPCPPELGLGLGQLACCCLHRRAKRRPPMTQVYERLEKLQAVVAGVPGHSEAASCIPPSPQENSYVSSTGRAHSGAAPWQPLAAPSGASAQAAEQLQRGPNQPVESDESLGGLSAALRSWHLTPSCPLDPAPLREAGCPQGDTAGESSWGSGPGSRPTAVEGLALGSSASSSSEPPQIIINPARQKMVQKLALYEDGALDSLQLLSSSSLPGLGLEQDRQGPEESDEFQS
- experiment description: Kinase panel screen, IRAK1
- Format: biochemical
- particulars: 10 μM test compound, 10 μM ATP
- Text: Compounds of Formulae I and II were examined for activity against a selected panel of kinases using the KinaseProfiler™ enzyme profiling services (Upstate, Millipore Bioscience Division). […]
measured endpoint: Percent inhibition, IRAK1

> print(dat)
                                   molecule  result
1  Cc1ccc(CN2CCC[C@@H](Nc3ccc4[nH]ncc4c3)C2)cc1OCCO [Compound 1.161]     99%
2  NC(=O)Cn1ccc2cc(CN3CCC[C@@H](Nc4ccc5[nH]ncc5c4)C3)ccc21 [Compound 1.162]     97%
3  NC(=O)Cn1ccc2cc(CN3CC[C@@H](Nc4cccc5cnccc45)C3)ccc21 [Compound 2.059]     30%
4  OCCn1ccc2cc(CN3CC[C@@H](Nc4cccc5cnccc45)C3)ccc21 [Compound 2.066]     32%

----------
- experiment description: Compound plasma concentrations in mice at 15 min post administration
- Format: in vivo, mouse
- particulars: mouse; mice, plasma, 15 min post administration (oral dosing), mean of n = 3 mice; read-out: Plasma Mean Concentration
// concentration at 15 min lookup, one value per entry
measured endpoint: concentration at 15 min (nM)

> print(dat)
                                 chem.smiles        measured.endpoint  quantitative.readout
 1  NC(=O)Cn1ccc2ccc(CN3CCC[C@H](Nc4ccc5[nH]ncc5c4)C3)cc21  concentration at 15 min                   211
 2  Brc1cccc(CN2CCC[C@H](Nc3ccc4[nH]ncc4c3)C2)c1  concentration at 15 min                   708
 3  C=Cc1ccc(CN2CCC[C@@H](Nc3ccc4[nH]ncc4c3)C2)cc1  concentration at 15 min                   281
 4  CN(c1cccc(CN2CCC[C@H](Nc3ccc4[nH]ncc4c3)C2)c1)S(C)(=O)=O  concentration at 15 min                   643
 5  COc1ccc(CN2CCC[C@@H](Nc3ccc4[nH]ncc4c3)C2)cc1  concentration at 15 min                   526
 6  Cc1ccc(CN2CCC[C@H](Nc3ccc4[nH]ncc4c3)C2)cc1  concentration at 15 min                  1020
 7  OCCOc1cccc(CN2CCC[C@H](Nc3cccc4cnccc34)C2)c1  concentration at 15 min                  1340
 8  c1ccc(CN2CCC[C@@H](Nc3ccc4[nH]ncc4c3)C2)cc1  concentration at 15 min                   792
 9  c1cc(N[C@@H]2CCN(Cc3ccc4c(c3)OCCO4)C2)c2ccncc2c1  concentration at 15 min                  1260
10  Fc1ccc(CN2CC[C@@H](Nc3cccc4cnccc34)C2)cc1F  concentration at 15 min                   660
11  CS(=O)(=O)c1cccc(CN2CCC[C@H](Nc3ccc4[nH]ncc4c3)C2)c1  concentration at 15 min                   452
12  Oc1cccc(CN2CCC[C@@H](Nc3ccc4[nH]ncc4c3)C2)c1  concentration at 15 min                   109
13  Cc1ccc(CN2CC[C@@H](Nc3ccc4[nH]ncc4c3)C2)cc1  concentration at 15 min                   580
14  CSc1cccc(CN2CCC[C@@H](Nc3ccc4[nH]ncc4c3)C2)c1  concentration at 15 min                   250
15  NC(=O)Cn1ccc2ccc(CN3CCC[C@@H](Nc4ccc5[nH]ncc5c4)C3)cc21  concentration at 15 min                   441
16  CCSc1ccc(CN2CCC[C@H](Nc3ccc4[nH]ncc4c3)C2)cc1  concentration at 15 min                   588
17  c1cc(C2CC2)ccc1CN1CCC[C@H](Nc2ccc3[nH]ncc3c2)C1  concentration at 15 min                  1020
18  Brc1cccc(CN2CCC[C@@H](Nc3ccc4[nH]ncc4c3)C2)c1  concentration at 15 min                   286
19  O=C(COc1cccc(CN2CCC[C@@H](Nc3ccc4[nH]ncc4c3)C2)c1)N1CCOCC1  concentration at 15 min                   980
20  COc1ccc(CN2CC[C@@H](Nc3ccc4[nH]ncc4c3)C2)cc1  concentration at 15 min                  1520
21  Cc1ccc(CN2CCC[C@H](Nc3ccc4[nH]ncc4c3)C2)c(C)c1  concentration at 15 min                  32.4
22  Cc1cccc(CN2CCC[C@@H](Nc3ccc4[nH]ncc4c3)C2)c1C  concentration at 15 min                   111
